Provenance of the data: PubChem BioAssay (NCI)

tested on: SNB-75 CNS; experiment: NCI-60 one-dose screen, 48 h (100 = growth as untreated, 0 = no growth, -100 = all killed); details: 10 µM unless noted
Compounds without any hit were thinned out: in the full panel of roughly 83,000, 20% have a hit.
Labelling: growth reported below 60% becomes true; at or above becomes false.

1. O=c1ccc(Cn2c(C(F)(F)F)cc3c(Cl)ncnc32)c[nH]1: true
2. O=C(Nc1ccc(-c2ccc3c(c2)NC(=O)/C3=C\c2ccc[nH]2)cc1)Nc1ccc(Cl)c(Cl)c1: true
3. CC1=C(C(=O)Nc2ccccc2)C(c2cccc3ccccc23)n2c(nc3ccccc32)N1 (stereo not drawn): true
4. CN1CCN(C(=O)CCN(C(=O)Oc2cc3c(c4ccccc24)[C@H](CCl)CN3C(=O)c2cc3cc(OCCCN4CCC4)ccc3[nH]2)[C@H]2CCSSC2)CC1: true
5. CC1=C(C(=O)Nc2ccccc2)C(c2cccc(Cl)c2Cl)n2c(nc3ccccc32)N1 (stereo not drawn): true
6. CS(=O)(=O)Nc1cccc(-n2cnc3cc(-c4ccc(O)cc4)ccc32)c1: true
7. O=C(NNC(=S)NC(=O)c1ccccc1)c1ccc(OCc2nc3ccc(Cl)cc3[nH]2)cc1: true
8. Cc1cc(Cl)ccc1NC(=O)Nc1ccc(-c2ccc3c(c2)NC(=O)/C3=C\c2ccc[nH]2)cc1: false
9. Nc1nc(-c2ccccc2)c(N=Nc2ccc(Cl)cc2Cl)s1: true
10. N#C/C(=C/c1ccc([N+](=O)[O-])cc1)c1nnc(NC(=O)c2ccc(-n3c(=O)[nH]c4ccccc4c3=O)cc2)s1: false
11. NNc1ncnc2sc3c(c12)CCN(Cc1ccccc1)C3: false
12. COc1sc(/C=N/NC(=O)c2[nH]c3ccc(Br)cc3c2-c2ccccc2)cc1Cl: true
13. N#Cc1c(NC(=O)N2CCOCC2)n(-c2ccc(OC(F)(F)F)cc2)c2cc(F)ccc12: false
14. Cc1ccc(N=Nc2c(N)nn3c(-c4cc5ccccc5oc4=O)ccnc23)cc1: false
15. Fc1ccc(N2CC(Cn3c(C(F)(F)F)cc4c(Cl)ncnc43)C2)c(F)c1: true
16. O=c1c(-c2nc(-c3ccccc3)c(-c3ccccc3)[nH]2)coc2ccc(F)cc12: true
17. C/C(=N/O)c1ccc(NC(=O)CSc2nnc(-c3ccc4nc(-c5ccc(Cl)cc5)[nH]c4c3)o2)cc1: true

* * *

test system: HCT-116 colon; assay: NCI-60 one-dose screen, 48 h; conditions: 10 µM unless noted
About 83,000 compounds went through this panel and 20% of them were active in at least one assay; those are over-represented in the sample as a whole. Active and inactive are the calls of the source. Rule for the calls: active = growth percent below 10; inactive = the rest.
Outcome codes: active, inactive

1. Fc1ccc(Nc2nnc(-c3c[nH]c4ccccc34)o2)cc1: inactive
2. COc1ccc2[nH]c(=O)c(CSc3ccccc3Nc3nccc(-c4ccc(Cl)cc4)n3)cc2c1: inactive
3. COc1ccc(C(=O)/C=C/c2ccc3c(c2)OCCO3)cc1S(N)(=O)=O: inactive
4. O=C1Nc2ccccc2/C1=C\c1ccc(OCC(=O)c2ccc(Br)cc2)cc1: inactive
5. N#Cc1ccc(C(=O)NNC(=O)CSc2nc3sc4c(c3c(=O)n2-c2ccc(Cl)cc2)CCCC4)cc1: inactive
6. O=C(Nc1ccc(-c2ccc3c(c2)NC(=O)/C3=C\c2ccc[nH]2)cc1)Nc1cccc(Cl)c1: active
7. COc1ccc(S(=O)(=O)Nc2ccc(-c3ccc4c(c3)NC(=O)/C4=C\c3ccc[nH]3)cc2)cc1OC: inactive
8. Cn1cc(-c2cc(N)n3nc(-c4c[nH]c5ccc(F)cc45)cc3n2)c2cc(Br)cnc21: active
9. Cc1[nH]nc2ccc3nc(-c4cnn(CCO)c4)c4c(c3c12)CCCC4: inactive
10. COc1ccc(SC2c3cc(OC)ccc3Oc3nc(N)c(C#N)c(N)c32)cc1 (stereo not drawn): inactive
11. N#CC1=C(c2cccs2)Nc2c(c(-c3ccccc3)nn2-c2ccccc2)C12C(=O)Nc1ccccc12 (stereo not drawn): active
12. CC(C)C[C@H](NC(=O)CNC(=O)C[C@H]1O[C@@H]2OC3(C)CC[C@H]4[C@H](C)CC[C@@H]([C@H]1C)[C@@]24O3)B(O)O: active
13. CC(Nc1ncnc2ccc(-c3ccc4oc(N)nc4c3)cc12)c1ccccc1 (stereo not drawn): active
14. NS(=O)(=O)c1ccc(Nc2nc(N/N=C/c3cc(Br)c(O)c(Br)c3)nc(Nc3ccccc3)n2)cc1: inactive
15. COc1ccc(NC(=O)NN2C(=O)c3ccccc3N(C)C2c2ccc(OC)cc2)cc1 (stereo not drawn): inactive
16. Cc1ccc(C(=O)Nc2cccc(C(=O)NC(=S)Nc3ccc(S(N)(=O)=O)cc3)c2)cc1: inactive
17. CC(C)(C)C(=O)c1c2c(c3ccc4c5ccccc5ccc4n13)C(=O)c1ccccc1C2=O: inactive
18. c1n[nH]cc1-c1nc2ccc3[nH]ncc3c2c2c1CC1(CC2)COC1: inactive
19. C=CCSc1nnc(-c2ccc(-c3nc4ccc(Cl)cc4[nH]3)cc2)o1: inactive
20. COc1ccc(-c2cc(C(=O)N=Nc3c(O)[nH]c4ccc(Cl)cc34)c3ccccc3n2)cc1OC: inactive
21. O=C1/C(=C/C=C/c2ccco2)SC(=S)N1CC(=S)C1C=CS(=O)(=O)C1 (stereo not drawn): inactive
22. COC(=O)c1cc(C(C)=O)n2c3ccccc3c3ccccc3c12: inactive
23. COc1ccc2c(c1)C(=O)N(C)C2C1c2c(cc3c(c2OC)OCO3)CCN1C (stereo not drawn): inactive
24. Nc1nnc(CS(=O)(=O)c2ccccc2)s1: inactive
25. Cc1ccc(C2CC(c3ccc(NC(=O)Nc4ccccc4)cc3)=NN2c2ccc(S(C)(=O)=O)cc2)cc1 (stereo not drawn): active
26. CCC(=O)c1cc(C(=O)OC)c2ccc3c4ccccc4ccc3n12: inactive
27. N#C/C(=C1/C(=O)Nc2ccccc21)c1nnc(NC(=O)c2ccc(-n3c(=O)[nH]c4ccccc4c3=O)cc2)s1: inactive
28. O=C1Nc2cc(-c3ccc(NS(=O)(=O)c4ccc(-c5ccccc5)cc4)cc3)ccc2/C1=C/c1ccc[nH]1: inactive
29. CN(C)c1nc(NCCNS(=O)(=O)c2ccc(C(=O)/C=C/c3ccc(Cl)cc3)cc2)nc(N2CCOCC2)n1: active
30. Cn1cc(-c2cc(N)n3nc(-c4c[nH]c5ccccc45)cc3n2)c2ccccc21: active
31. COc1ccccc1/C=C/c1cccc(NC(=S)NCCCCN(C)C)c1: active
32. COc1ccc(C2=NN(C(=O)[C@H]3[C@@H](c4ccco4)c4sc(=O)[nH]c4S[C@@H]3C)C(c3ccc4ccccc4c3)C2)cc1 (stereo partly drawn): inactive
33. COc1ccc(-n2c(NC(=O)N3CCN(C)CC3)c(C#N)c3ccccc32)cc1: inactive
34. Cn1cc(-c2cc(N)n3nc(-c4c[nH]c5ccccc45)cc3n2)c2cc(Br)ccc21: active
35. Cc1ccc(C(=O)Nc2cc(-n3cnc(F)c3)cc(C(F)(F)F)c2)cc1C#Cc1cnc2cccnn12: inactive
36. Nc1nc2cc(-c3ccc4ncnc(NCc5ccccc5)c4c3)ccc2o1: active
37. O=C(COc1ccc(/C=C2/C(=O)Nc3ccc(Cl)cc32)cc1)Nc1ccc(Br)cc1: active
38. COc1ccc2c(c1)N=c1c-2cc2c(O)[nH]c(=S)n2c1=O: inactive
